Tested on: RPMI-8226 leukemia
experiment.description: NCI-60 one-dose screen, 48 h
protocol.conditions: 10 µM unless noted
Description: Growth inhibition of the RPMI-8226 human tumor cell line is measured as a screen for anti-cancer activity. Cells are grown in 96 well plates and exposed to the test compound for 48 hours. Compounds are tested at a single concentration, which is 10^-5 M for most compounds. The reported endpoint is percent growth (GI% or GIPRCNT), where numbers from 0 - 100% represent growth inhibition, and numbers from -100% - 0 represent cell death. For example, a value of 40 represents 60% growth inhibition. […]
The panel holds about 83,000 compounds, 20% with a hit somewhere; the sample as a whole holds those more often. The source made the active and inactive calls. The calls were made as follows: active = growth percent below 10; inactive = the rest.
Log the outcome using a class from active, inactive

Worked cases, answers included:
INSERT INTO assay_data (molecule, group_label) VALUES
  ('O=c1nc(Nc2cccc(Cl)c2)oc2cc(Cl)oc(=O)c12', 'inactive'),
  ('C[n+]1c(/C=C\C=C\N2CCCCC2)sc2ccccc21', 'active'),
  ('CCOC(=O)c1ccc(Nc2sc(C(=O)c3ccc(Br)cc3)c(N)c2C#N)cc1', 'inactive'),
  ('N#Cc1ccc(OC(=O)Nc2cc(Cl)cc(Cl)c2)cc1', 'active'),
  ('CC(C)c1ncc([N+](=O)[O-])n1C', 'inactive');

*Q* What outcome does the record of this test show for CCCNS(=O)(=O)c1ccc(Cl)cc1 ?
*A* inactive

*Q* What outcome does the record of this test show for C=CCNC(=S)N/C=C(/C(=O)c1ccccc1)c1ccccc1 ?
*A* inactive

*Q* What outcome does the record of this test show for CCC(=O)Oc1ccc2ccccc2c1 ?
*A* inactive

*Q* What outcome does the record of this test show for CCC12OC(COc3ccccc3)CN1CCN2c1ccccc1 (centres undefined) ?
*A* inactive

*Q* What outcome does the record of this test show for CCNC(=O)Oc1ccc[nH]c1=O ?
*A* inactive

*Q* What outcome does the record of this test show for C=C(OC(C)=O)c1ccccc1 ?
*A* inactive
